These measurements were taken from the supplement of paper PMC9170038.

- Test system: MS2 coat protein
- experiment: apparent KD of MS2 coat protein; designed switch direction (-1 OFF switch, 1 ON switch): -1; higher = weaker reporter binding
- condition-summary: input ligand: microRNA oligo, concentration not stated
Returns one of 1 (yes) or 0 (no); 1 (yes) when apparent KD of MS2 coat protein is >= 40 nM.

{"primary-sequence": "ACAUGUCAUUGAGGAUAUCGCACACAUGAGGAUCACCCAUGUAAACGGAUGCUCUUUCGUGGUUUCGAGAAGGCGAUGUACAUU [Ex NG2 #97] (Eterna round: R96, puzzle: Exclusion NG 2)", "group-label": "1 (yes)"}
{"primary-sequence": "CUGAAAGACGAAGGAUAUCCAGGCGCCGGCGUAGGAGAAGGUCGUCCGGGUGUCCUAGAACUUGAGGAUCACCCAAGUAGAAGA [Mutated MS2 EX1.14] (Eterna round: R96, puzzle: Exclusion NG 1)", "group-label": "0 (no)"}

Exercise: Would you say GCAGCAUAGUUUACUAACUGUUACAUGAGGAUCACCCAUGUUGAGGAUAUGGUCUGGAUUACAGGCCAGAAGGCGACAAGCUGC [Eli exng3 - 028] (Eterna round: R96, puzzle: Exclusion NG 3) shows apparent KD of MS2 coat protein at minimum 40 nM?
Key: 0 (no)

Exercise: # bool: apparent KD of MS2 coat protein of AGCUAGUGCCGAGGAUAUACAUGAGGAUCACCCAUGUAGGCGUGAGGCUUUGUCUCACGCGAGAUGUAGAAGGCGGCGUUGGCA [JL ENG2 1.52] (Eterna round: R96, puzzle: Exclusion NG 2) >= 40 nM
Key: 0 (no)

---

- Test system: MS2 coat protein
- experiment: apparent KD of MS2 coat protein; designed switch direction (-1 OFF switch, 1 ON switch): 1; higher = weaker reporter binding
- condition-summary: input ligand: microRNA oligo, concentration not stated
Short version: apparent KD of MS2 coat protein at least 70 nM is criterion met, less is criterion not met.

Worked examples follow.
{"primary-sequence": "UGGCUCAGACGAGGAUAUAUGUGAUCACAUGAGGAUCACCCAUGUCUCGAGCUUCGGCUCGAGACAUAGAAGGCGUCUGAGCCA [SSNG2/3-A2] (Eterna round: R96, puzzle: Same State NG 2)", "group-label": "criterion not met"}
{"primary-sequence": "UAUGAAUAGCAAGGAUAUUGAUAACAUGAGGAUCACCCAUGUAAUUGAUUGAGAAAGAUUAGUUACAAGAAGGUGCAAUUGAUU [JR_SSNG2_Sub034] (Eterna round: R96, puzzle: Same State NG 2)", "group-label": "criterion met"}
{"primary-sequence": "UGUUUGUUGUGAGGAUAUACGUACACCUUACAUGAGGAUCACCCAUGUUGUUUCUUUGAUUGUUGGUAGAAGGCACUUGGUUAU [JR_SSNG2_Sub048] (Eterna round: R96, puzzle: Same State NG 2)", "group-label": "criterion met"}

Consider the additional sequence presented here.
Exercise: Does the sequence UCGGGCGUACUUGCUGACAUGAGGAUCACCCAUGUAAAUGGGAAGGAUAUGGUACCGUUUCGGUACCAGAAGGUCCUGGGUGCU [salish99_SSNG3_r04_309] (Eterna round: R96, puzzle: Same State NG 3) have recorded apparent KD of MS2 coat protein that is 70 nM or more?
Key: criterion met

---

- Tested on: K4 kissing-loop RNA reporter
- experiment: apparent KD of K4 kissing-loop reporter; higher = weaker reporter binding
- condition-summary: Eterna round: R107; input ligand: none
property-name: apparent KD of K4 kissing-loop reporter (nM)
Respond numerically; units are nM and should not be typed.

Example cases with answers are listed next.
{"primary-sequence": "AAUAAGGUCGCCGAUACCAGCGCAGGCAGAGCAAAGCUCUGCCGGGUAGUGAUGUUACCGCGCCCUUGGCAGCGGUGGCACGACC [Omei KL Theo B SS C v1]", "apparent KD of K4 kissing-loop reporter (nM)": 340}
{"primary-sequence": "AACCACUCGUUACAUCACUAUCGAGUGGAACGAGGACCGGUACGGCCGCCACUCGAUAACUUGCAGUGAUGUUGCAAGUAAGAAU [(T)''-(K)'-(T)'-(T1)-(T2)-(K1)-(K2)_Design9]", "apparent KD of K4 kissing-loop reporter (nM)": 472}

Moving on to the next sequence.
Exercise: Which apparent KD of K4 kissing-loop reporter value is on record for AUAGGCAUAGCCCGAGUGAUGUUCGACGAUACCAGCCUCGAUAGAGGCCCUUGGCAGCGUAAAUGAUCAUGAAGCCAAGGAAUUA [whbob_Ex_Theo_A_th70] ?
Key: 408

---

- Test system: K4 kissing-loop RNA reporter;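 further: bound reporter read as fluorescence of individual clusters on recovered sequencing chips by microscopy, with normalized cluster intensities fitted with a binding model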
- experiment: apparent KD of K4 kissing-loop reporter; higher = weaker reporter binding
- condition-summary: Eterna round: R107; input ligand: theophylline 20 uM
Entries and their apparent KD of K4 kissing-loop reporter
Give a bare numeral; the unit nM is implied.

Here are 3 sequences together with their reported answers.
{"primary-sequence": "GUGGCGACGCAAGGAUAUGGGUGCUAGUGAUGUUAGCCUUUGCUCCAUGUCACGUGGUCUGCACACCCAGAAGGUGCGGGAAGAU [theeternabot_exclusion_KL_FMN_B_9]", "property-name": "apparent KD of K4 kissing-loop reporter", "uom": "nM", "reported-value": 307}
{"primary-sequence": "UGGAGUUGACGAAAAGUCAACUCCUGAGAUACCAGUGACGAAAGUCACCCUUGGCAGCUCACUGCCAGUGAUGUUGGUUUAUAAA [#OpenEnded 2]", "property-name": "apparent KD of K4 kissing-loop reporter", "uom": "nM", "reported-value": 266}
{"primary-sequence": "GGAUAGGAUAGAGGAUAUGGUUUAUGCAGAAAUAACUUAUUGUGUAAAUCCAUAGGGAGUGAUGUUCCAGAAGGCUGUCCUAUCG [MatMod 15 - Jieux - Exclusion - FMN B]", "property-name": "apparent KD of K4 kissing-loop reporter", "uom": "nM", "reported-value": 241}

Exercise: What value of apparent KD of K4 kissing-loop reporter has been reported for the following sequence? AAAAGAAAGUCGGCCGCCACUCAACGCAGUGAUGUUGCAAGACAGAAGAGCAGUGAUGUUGCCCAGAGGACCGGGACACAAGGCC [Same State Typtophan B GF 3]
Key: 401

Exercise: Name the recorded apparent KD of K4 kissing-loop reporter for GGAUAGGAGAGAGGAUAUGGGCUAGGCAAGAAUAACUUGUCUAGCAAAUCCAUGAGGAGUGAUGUUCCAGAAGGCUCUCCUAUCG [FmnBX 1 G9+C77] .
Key: 143

Exercise: # input sequence: AAUUUGUAUUUAUUCUUUAAAUGUUCAGAAGGAGCGUGAAUUAUCACAGGUAGGUCGCUGAGCUAGUGAUGUUAGCUAUACACUA [#01 K4 Arginine A Exclusion] ; wanted: its apparent KD of K4 kissing-loop reporter
Key: 181

Exercise: # lookup: apparent KD of K4 kissing-loop reporter of UACCUGCUGUCAGGAUAUGAGUGCAGUGAUGUUGCACUCAACGUAACCAUCUUGAAAUGCAAACACUCAGAAGGGACGCGCGAAG [Onaninso]
Key: 91.8

Exercise: I have this sequence here, CAGAACUUGUAUACAGGGCAUGCCAGAGAUACCAGUCAAAUGGAAGGCCCUUGGCAGCUCAGGCGAGUGAUGUUCGCAGGCUGAC [Exclusion Theophylline A GF 19] , and I need its recorded apparent KD of K4 kissing-loop reporter.
Key: 131

---

- System: MS2 coat protein
- experiment: apparent KD of MS2 coat protein; designed switch direction (-1 OFF switch, 1 ON switch): -1; higher = weaker reporter binding
- condition-summary: input ligand: none
Categorize each record by its apparent KD of MS2 coat protein using bin 1: < 20 nM; bin 2: ≥ 20 nM and < 60 nM; bin 3: ≥ 60 nM

{"primary-sequence": "UAUUCACAAGCGAGAUCCCACAUGAGGAUCACCCAUGUGCUCGUCUUAUAAGGUACUGUGACGAUAGUCACGGUACC [Mat - Sensor, turn-off var - Eli Mod - D86] (Eterna round: R97, puzzle: Sensor, turn-off variant 1)", "group-label": "bin 1"}
{"primary-sequence": "ACAAGUUUUUAGAUUCUUAACAUGAGGAUCACCCAUGUGCUCGUCUUGUUGGGCCCGGGCCCGCCGGGCCCGGGCCC (Eterna round: R97, puzzle: Sensor, turn-off variant 1)", "group-label": "bin 3"}
{"primary-sequence": "AAUUUAAUUAACAAGCUUUACAUGAGGAUCACCCAUGUGAUCAUGCUCGUCUUAGGUACAGGCUUCGGCCUGUACCA [Stov1/6-B1] (Eterna round: R97, puzzle: Sensor, turn-off variant 1)", "group-label": "bin 2"}
{"primary-sequence": "GCCGGUCAUGUAGGAUAUGGCCGGCGGUGCCGGCCAGAAGGACAUGAGGAUCACCCAUGUGCCGGCCUUUGGCCGGCGCCCGGC (Eterna round: R96, puzzle: Exclusion NG 1)", "group-label": "bin 1"}
{"primary-sequence": "CAGCUGAAAGUGAGGAUAUCGACUGCUUCGGCAGUCGAGAAGGCACAUGAGGAUCACCCAUGUCUCAACAGCUG [BmEx4/1-A4] (Eterna round: R97, puzzle: Brourd's mod of Exclusion 4)", "group-label": "bin 2"}
{"primary-sequence": "CACGAAUAGUGAGGAUAUGUGCGACAAAGUUGCACAGAAGGCACAUGAGGAUCACCCAUGUAAGCUAGGUCGAAAGACCUAGCG [Omei Exc(NG)1 A] (Eterna round: R96, puzzle: Exclusion NG 1)", "group-label": "bin 2"}

Exercise: Just checking, what class would you give GAUCAUGCAGGAUAUACAUGGACCAUGAAAACAUGGUUUUCACAUGAGGAUCACCCAUGUAGAAGGGCAUGAUC [Omei Ex2 A8] (Eterna round: R97, puzzle: Exclusion 2) here?
Key: bin 3

Exercise: Input CGUAAGCUAGGAUAUGCUUUGGGAAAGCAUUCCUUCGAUAAACUUGAGGAUCACCCAAGUAGAAGGAGCUUACA [salish99_ex2_r4_012] (Eterna round: R97, puzzle: Exclusion 2) ; output its category
Key: bin 1

Exercise: // bin(item) where item = UGUUGGUACGUAGGAUAUCCACCAACAGGUGGAAGGAUAUGGAAACAGAAGGUUCGCCAACAGGCGGAGAAGGACGUGGUAACU [pwkr exNG2 2xF7 2xFMN.24] (Eterna round: R96, puzzle: Exclusion NG 2)
Key: bin 3
